B1: Pistol ribozyme (parent)
chain: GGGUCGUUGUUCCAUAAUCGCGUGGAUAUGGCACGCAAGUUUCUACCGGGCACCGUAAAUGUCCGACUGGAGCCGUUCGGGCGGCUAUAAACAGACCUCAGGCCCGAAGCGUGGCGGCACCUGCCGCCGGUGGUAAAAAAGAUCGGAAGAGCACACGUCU

# Variants of: B1
# PROTOCOL: aptazyme ON/OFF ratio, guanine; higher = stronger switching; co-transcriptional cleavage with and without guanine
READOUT_NAME: aptazyme ON/OFF ratio
Hey, just send me the number, nothing else.

// query # aptazyme ON/OFF ratio lookup, item U8A G9U U11C C13A
// result 1.04

// query Query: aptazyme ON/OFF ratio; subject: U8C G9C U11C
// result 1.06

// query Suppose we examine the variant U7C U8G G9U U10C U11A C13A ; what aptazyme ON/OFF ratio value has been reported?
// result 1.24

// query Field request: aptazyme ON/OFF ratio | item: U7G U8G U10A U11C C12U C13G
// result 1.25

// query aptazyme ON/OFF ratio lookup needed for U7C U8C G9C U11G C12A C13A , thanks.
// result 1.13

// query Fill blank: measured aptazyme ON/OFF ratio of the variant U7C U8A G9A U10A C13G is ____.
// result 1.09

// query // lookup aptazyme ON/OFF ratio for U8A G9A C12U C13A
// result 1.19

// query Would you mind telling me what aptazyme ON/OFF ratio value was observed for U8G U10G U11A C12G C13G ?
// result 1.17

// query // aptazyme ON/OFF ratio lookup, key: U8G U10C C12U C13G
// result 1.07

// query Which measured aptazyme ON/OFF ratio value corresponds to U7G G9A U11G C12U ?
// result 1.3

// query // lookup aptazyme ON/OFF ratio for U7C U8A G9A U10A U11A C13A
// result 1.16

// query Requested field: aptazyme ON/OFF ratio. Item: G9A U10G U11G C12U C13A
// result 1.08

// query Reported aptazyme ON/OFF ratio, variant G9C U10G U11G C13A : ____
// result 1.09

// query Can you share its aptazyme ON/OFF ratio? I mean this variant: U7G U8A G9U U10G C12A
// result 1.09

// query Which aptazyme ON/OFF ratio is reported for this variant? U7A U8C G9U U11A C12A
// result 1.32

// query Recorded aptazyme ON/OFF ratio for U7G U8G G9C U11C C12G C13G , please?
// result 1.06

// query Query (variant): U7A U8G G9C U10A U11G C12A C13A ; field requested: aptazyme ON/OFF ratio
// result 1.2

// query For the variant U7A U8C U10C U11G C12A C13U , what aptazyme ON/OFF ratio is on record?
// result 1.18

// query What aptazyme ON/OFF ratio value was documented for this variant, U7C U8C U11G C12A C13G ?
// result 1.11

// query Fill blank: measured aptazyme ON/OFF ratio of the variant U8C U11C C12G C13G is ____.
// result 1.36

// query Return reported aptazyme ON/OFF ratio; argument: U7A U8G G9U U11C C12U
// result 1.54

// query Please report the recorded aptazyme ON/OFF ratio for U7A U8C U10G U11C .
// result 1.74

// query I'd like to know its aptazyme ON/OFF ratio. The variant in question is U8A U10C U11A C12A
// result 1.13

// query // returns reported aptazyme ON/OFF ratio for input U7C G9A U10G U11G C12G C13G
// result 1.05

// query Which aptazyme ON/OFF ratio value belongs to U7A U11C C13A ?
// result 1.19

// query State the recorded aptazyme ON/OFF ratio for this entry: U7G U8G G9C U11A C12U C13A
// result 1.13

// query Look at this variant and give its reported aptazyme ON/OFF ratio. G9A U10C C12A C13A
// result 1.46

// query Could you tell me which aptazyme ON/OFF ratio is on file for U7G G9A U11C C12G C13G ?
// result 1.07

// query Which aptazyme ON/OFF ratio reading was recorded for the variant U7G U8G U10C C12U C13A ?
// result 1.47

// query // aptazyme ON/OFF ratio lookup, key: U7A G9A U10G U11G C12A C13A
// result 1.2

// query I am curious: what aptazyme ON/OFF ratio value has been reported for U7C U8C G9U U10A C12A C13G ?
// result 1.07
